Target: human MC3R (Homo sapiens, UniProt P41968)
Construct: expressed in transfected cells; host or cells: HEK-293 cells stably expressing the GScAMP22F split-luciferase cAMP sensor (parent reporter line from Promega); MC3R clone generated in-house, G418 selection
Sequence (P41968 whole entry): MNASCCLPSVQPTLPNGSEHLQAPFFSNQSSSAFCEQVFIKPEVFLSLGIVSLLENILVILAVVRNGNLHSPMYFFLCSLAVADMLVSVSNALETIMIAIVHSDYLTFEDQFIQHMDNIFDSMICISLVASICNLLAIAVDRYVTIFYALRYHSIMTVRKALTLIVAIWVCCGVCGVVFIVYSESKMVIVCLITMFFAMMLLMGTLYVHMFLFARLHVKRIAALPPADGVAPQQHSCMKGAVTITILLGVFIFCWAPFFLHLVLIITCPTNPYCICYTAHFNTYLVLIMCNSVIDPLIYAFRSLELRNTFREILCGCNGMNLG
Assay: split-luciferase cAMP sensor assay, agonist mode (measurement window 1), hMC3R
Format: cell-based
Conditions: % maximal activation, agonist mode; read-out: MC3R cAMP % max activation
Protocol: The stable cell lines were grown and maintained in selection media consisting of Dulbecco's modified Eagle media (DMEM) with 4.5 g/l D-glucose, and 4 mM L-glutamine (Thermo Fisher Scientific, Waltham, MA), supplemented with 10% fetal bovine serum, 100 units/ml penicillin, 100 μg/ml streptomycin, 2.5 μg/ml amphotericin B, 200 μg/ml hygromycin B (for positive selection of the GScAMP22f luciferase reporter), and Geneticin™ (G418) 700 μg/ml (for MC3R or MC4R selection). […]
Positions of bridges follow the written chain, without caps; N, C: chain ends. Non-standard residues stand in square brackets, D forms with d. Residues, ends and D or L forms follow the SMILES beside them. NMeW = CN[C@@H](Cc1c[nH]c2ccccc12)C(=O)O; NMeH = CN[C@@H](Cc1c[nH]cn1)C(=O)O; Cit = NC(=O)NCCC[C@H](N)C(=O)O; Nle = CCCC[C@H](N)C(=O)O; Orn = NCCC[C@H](N)C(=O)O
Label scheme for Emax: lower than 40% is N, 40% and above is Y.

compound	qualitative-label
CCCC[C@H](NC(=O)[C@H](CCCNC(=N)N)NC(C)=O)C(=O)N[C@H]1CSSC[C@@H](C(N)=O)NC(=O)[C@H](Cc2c[nH]c3ccccc23)NC(=O)[C@H](CCCNC(=N)N)NC(=O)[C@H](Cc2ccccc2)NC(=O)[C@H](CCCNC(N)=O)NC1=O [CTX-1609, Arg-Nle-cyclo(Cys-Cit-Phe-Arg-Trp-Cys)] (Ac-R[Nle]C[Cit]FRWC-NH2; disulfide 3-8 (inferred))	Y
CC(=O)N[C@H]1CSSC[C@@H](C(N)=O)NC(=O)[C@H](Cc2c[nH]c3ccccc23)NC(=O)[C@H](CCCNC(=N)N)NC(=O)[C@@H](Cc2ccccc2)NC(=O)[C@H](Cc2c[nH]cn2)NC(=O)C(C)(C)NC1=O	Y
CCCC[C@H](NC(=O)[C@H](CCCNC(=N)N)NC(C)=O)C(=O)N[C@H]1CSSC[C@@H](C(N)=O)NC(=O)[C@H](Cc2c[nH]c3ccccc23)NC(=O)[C@H](CCCNC(=N)N)NC(=O)[C@@H](Cc2ccccc2)NC(=O)[C@H](CCCN)NC1=O [CTX-1617, Arg-Nle-cyclo(Cys-Orn-D-Phe-Arg-Trp-Cys)] (Ac-R[Nle]C[Orn][dF]RWC-NH2; disulfide 3-8)	Y
CC(=O)N[C@@H](CCCNC(=N)N)C(=O)N[C@H]1CSSC[C@@H](C(N)=O)NC(=O)[C@H](Cc2c[nH]c3ccccc23)NC(=O)[C@H](CCCNC(=N)N)NC(=O)[C@@H](Cc2ccccc2)NC(=O)[C@H](CCCNC(N)=O)NC(=O)C(C)(C)NC1=O	N
CC(=O)N[C@@H](CCCNC(=N)N)C(=O)N[C@H]1CSSC[C@@H](C(N)=O)NC(=O)[C@H](Cc2c[nH]c3ccccc23)NC(=O)[C@H](CCCNC(=N)N)NC(=O)[C@H](Cc2ccccc2)NC(=O)[C@H](Cc2c[nH]cn2)NC(=O)[C@@H](C)NC1=O	Y
CCCC[C@H](NC(=O)[C@H](CCCNC(=N)N)NC(C)=O)C(=O)N[C@H]1CSSC[C@@H](C(N)=O)NC(=O)[C@@H](Cc2c[nH]c3ccccc23)NC(=O)[C@H](CCCNC(=N)N)NC(=O)[C@@H](Cc2ccccc2)NC(=O)[C@H](CCCNC(N)=O)NC1=O [CTX-1608] (Ac-R[Nle]C[Cit][dF]R[dW]C-NH2; disulfide 3-8 (inferred))	N
CC(=O)N[C@H]1CSSC[C@@H](C(N)=O)NC(=O)[C@H](Cc2c[nH]c3ccccc23)NC(=O)[C@H](CCCNC(=N)N)NC(=O)[C@@H](Cc2ccccc2)NC(=O)[C@H](CCCNC(=N)N)NC(=O)[C@@H](C)NC1=O [CTX-1627, cyclo(Cys-D-Ala-Arg-D-Phe-Arg-Trp-Cys)] (Ac-C[dA]R[dF]RWC-NH2; disulfide 1-7 (inferred))	Y
CC(=O)N[C@H]1CSSC[C@@H](C(N)=O)NC(=O)[C@H](Cc2ccccc2)NC(=O)[C@H](CCCNC(=N)N)NC(=O)[C@@H](Cc2ccccc2)NC(=O)[C@H](CCCNC(N)=O)NC(=O)CNC1=O [CTX-1639, cyclo(Cys-Gly-Cit-D-Phe-Arg-Phe-Cys)] (Ac-CG[Cit][dF]RFC-NH2; disulfide 1-7 (inferred))	Y
C[C@H]1NC(=O)CSC[C@@H](C(N)=O)NC(=O)[C@H](Cc2c[nH]c3ccccc23)N(C)C(=O)[C@H](CCCNC(=N)N)NC(=O)[C@@H](Cc2ccccc2)NC(=O)[C@H](Cc2c[nH]cn2)N(C)C1=O [CTX-1203] ({CH2CO}-[dA][NMeH][dF]R[NMeW]C-NH2; thioether N-6)	Y
CC(=O)N[C@@H](CCCNC(=N)N)C(=O)N[C@H]1CSSC[C@@H](C(N)=O)NC(=O)[C@@H](Cc2c[nH]c3ccccc23)NC(=O)[C@H](CCCNC(=N)N)NC(=O)[C@@H](Cc2ccccc2)NC(=O)[C@H](CCCNC(=N)N)NC(=O)[C@@H](C)NC1=O [CTX-1263] (Ac-RC[dA]R[dF]R[dW]C-NH2; disulfide 2-8)	Y
CC(=O)N[C@H]1CSSC[C@@H](C(N)=O)NC(=O)[C@H](Cc2c[nH]c3ccccc23)NC(=O)[C@H](CCCNC(=N)N)NC(=O)[C@@H](Cc2ccccc2)NC(=O)[C@H](Cc2c[nH]cn2)NC(=O)CNC1=O [CTX-1206, cyclo(Cys-Gly-His-D-Phe-Arg-Trp-Cys)] (Ac-CGH[dF]RWC-NH2; disulfide 1-7 (inferred))	Y

# credit: patent US20240391954A1
